tested on: OE19 (Esophageal Adenocarcinoma); assay: Bliss excess, mean over the matrix (fraction); higher = more synergy;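 note: after 72 h of two-drug dosing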
Endpoint label: Bliss excess

Look up Bliss excess for this compound: Cc1nc(Nc2ncc(C(=O)Nc3c(C)cccc3Cl)s2)cc(N2CCN(CCO)CC2)n1 [Dasatinib] + CC(=O)Nc1cccc(-n2c(=O)n(C3CC3)c(=O)c3c(Nc4ccc(I)cc4F)n(C)c(=O)c(C)c32)c1 [Trametinib] (first compound max 2 µM, 7x7, partner max 1 µM)
-0.063

Further cases:
Look up Bliss excess for this compound: C[C@@H]1COCCN1c1cc(C2([S@](C)(=N)=O)CC2)nc(-c2ccnc3[nH]ccc23)n1 [AZD6738] + O=C(c1cc(Cc2n[nH]c(=O)c3ccccc23)ccc1F)N1CCN(C(=O)C2CC2)CC1 [Olaparib] (first compound max 10 µM, 7x7, partner max 10 µM)
-0.133

Look up Bliss excess for this compound: Cc1c2c(nn1C)CSCc1cc(n(C)n1)CSc1cc(c3ccccc3c1)OCCCc1c(C(=O)O)n(C)c3c-2c(Cl)ccc13 [AZD5991] + C[C@@H](Nc1cc(F)cc(F)c1)c1cc(C(=O)N(C)C)cc2c(=O)cc(N3CCOCC3)oc12 [AZD8186] (first compound max 1 µM, 7x7, partner max 3 µM)
0.043

Look up Bliss excess for this compound: CN(CCO)CC[C@H](CSc1ccccc1)Nc1ccc(S(=O)(=O)NC(=O)c2ccc(N3CCC([C@@H](O)c4ccccc4-c4ccc(Cl)cc4)CC3)cc2)cc1S(=O)(=O)C(F)(F)F [AZD4320] + C[C@@H](Nc1cc(F)cc(F)c1)c1cc(C(=O)N(C)C)cc2c(=O)cc(N3CCOCC3)oc12 [AZD8186] (first compound max 1 µM, 7x7, partner max 3 µM)
0.0201

Look up Bliss excess for this compound: CC1(C)CCC(CN2CCN(c3ccc(C(=O)NS(=O)(=O)c4ccc(NCC5CCOCC5)c([N+](=O)[O-])c4)c(Oc4cnc5[nH]ccc5c4)c3)CC2)=C(c2ccc(Cl)cc2)C1 [Venetoclax] + COc1cc(Nc2ncc3c(n2)-c2ccc(Cl)cc2C(c2c(F)cccc2OC)=NC3)ccc1C(=O)O [Alisertib] (first compound max 1 µM, 7x7, partner max 10 µM)
-0.059

Look up Bliss excess for this compound: CN(CCO)CC[C@H](CSc1ccccc1)Nc1ccc(S(=O)(=O)NC(=O)c2ccc(N3CCC([C@@H](O)c4ccccc4-c4ccc(Cl)cc4)CC3)cc2)cc1S(=O)(=O)C(F)(F)F [AZD4320] + Cn1cnc2c(F)c(Nc3ccc(Br)cc3Cl)c(C(=O)NOCCO)cc21 [Selumetinib] (first compound max 1 µM, 7x7, partner max 3 µM)
-0.0202

Look up Bliss excess for this compound: Cn1cnc2c(F)c(Nc3ccc(Br)cc3Cl)c(C(=O)NOCCO)cc21 [Selumetinib] + CCN(CCO)CCCOc1ccc2c(Nc3cc(CC(=O)Nc4cccc(F)c4)[nH]n3)ncnc2c1 [AZD2811] (first compound max 10 µM, 7x7, partner max 1 µM)
-0.0015

----------
tested on: LU-65 (Non-Small Cell Lung Carcinoma); assay: Bliss excess, mean over the matrix (fraction); higher = more synergy
Endpoint label: Bliss excess
Would you mind answering with just the numeric figure?

Consider the worked cases shown below.
Look up Bliss excess for this molecule: COc1nnc2ccc(N3CCC(c4ccc(OCCN5CCN(C)C(=O)[C@H]5C)cc4)CC3)nn12 [AZD5153] + CCN(CCO)CCCOc1ccc2c(Nc3cc(CC(=O)Nc4cccc(F)c4)[nH]n3)ncnc2c1 [AZD2811] (first compound max 1 µM, 7x7, partner max 1 µM)
-0.0399

Look up Bliss excess for this molecule: C[C@@H](Nc1cc(F)cc(F)c1)c1cc(C(=O)N(C)C)cc2c(=O)cc(N3CCOCC3)oc12 [AZD8186] + C1CN(CCC1(C(=O)N[C@@H](CCO)C2=CC=C(C=C2)Cl)N)C3=NC=NC4=C3C=CN4 [AZD5363] (first compound max 10 µM, 7x7, partner max 10 µM)
-0.0629

Look up Bliss excess for this molecule: Cc1c2c(nn1C)CSCc1cc(n(C)n1)CSc1cc(c3ccccc3c1)OCCCc1c(C(=O)O)n(C)c3c-2c(Cl)ccc13 [AZD5991] + CCN(CCO)CCCOc1ccc2c(Nc3cc(CC(=O)Nc4cccc(F)c4)[nH]n3)ncnc2c1 [AZD2811] (first compound max 1 µM, 7x7, partner max 1 µM)
-0.0258

Look up Bliss excess for this molecule: CC(=O)c1c(C)c2cnc(Nc3ccc(N4CCNCC4)cn3)nc2n(C2CCCC2)c1=O [Palbociclib] + Cc1c2c(nn1C)CSCc1cc(n(C)n1)CSc1cc(c3ccccc3c1)OCCCc1c(C(=O)O)n(C)c3c-2c(Cl)ccc13 [AZD5991] (first compound max 10 µM, 7x7, partner max 1 µM)
-0.0692

Further cases:
Look up Bliss excess for this molecule: C[C@@H](Nc1cc(F)cc(F)c1)c1cc(C(=O)N(C)C)cc2c(=O)cc(N3CCOCC3)oc12 [AZD8186] + CC(=O)c1c(C)c2cnc(Nc3ccc(N4CCNCC4)cn3)nc2n(C2CCCC2)c1=O [Palbociclib] (first compound max 10 µM, 7x7, partner max 10 µM)
-0.0378

Look up Bliss excess for this molecule: Cc1c2c(nn1C)CSCc1cc(n(C)n1)CSc1cc(c3ccccc3c1)OCCCc1c(C(=O)O)n(C)c3c-2c(Cl)ccc13 [AZD5991] + Cn1cnc2c(F)c(Nc3ccc(Br)cc3Cl)c(C(=O)NOCCO)cc21 [Selumetinib] (first compound max 1 µM, 7x7, partner max 3 µM)
0.03

Look up Bliss excess for this molecule: CC(=O)Nc1cccc(-n2c(=O)n(C3CC3)c(=O)c3c(Nc4ccc(I)cc4F)n(C)c(=O)c(C)c32)c1 [Trametinib] + Cc1nc(-c2cn3c(n2)-c2ccc(-c4cnn(C(C)(C)C(N)=O)c4)cc2OCC3)n(C(C)C)n1 [Taselisib] (first compound max 1 µM, 7x7, partner max 10 µM)
0.0994

Look up Bliss excess for this molecule: NC1(C(=O)N[C@@H](CCO)c2ccc(Cl)cc2)CCN(c2ncnc3[nH]ccc23)CC1 [Capivasertib] + COc1nnc2ccc(N3CCC(c4ccc(OCCN5CCN(C)C(=O)[C@H]5C)cc4)CC3)nn12 [AZD5153] (first compound max 10 µM, 7x7, partner max 1 µM)
-0.152

----------
// reported Bliss excess per item
test system: ACHN (Kidney Carcinoma); experiment: Bliss excess, mean over the matrix (fraction); higher = more synergy
Would you mind answering with just the numeric figure?

Look up Bliss excess for this molecule: COc1cccc(OCCCN)c1-c1cc(Nc2cnc(C#N)cn2)n[nH]1 [Prexasertib] + C=CCn1c(=O)c2cnc(Nc3ccc(N4CCN(C)CC4)cc3)nc2n1-c1cccc(C(C)(C)O)n1 [AZD1775] (first compound max 1 µM, partner max 1 µM)
-0.0133

Further cases:
Look up Bliss excess for this molecule: CC1(C)CCC(CN2CCN(c3ccc(C(=O)NS(=O)(=O)c4ccc(NCC5CCOCC5)c([N+](=O)[O-])c4)c(Oc4cnc5[nH]ccc5c4)c3)CC2)=C(c2ccc(Cl)cc2)C1 [Venetoclax] + C=CCn1c(=O)c2cnc(Nc3ccc(N4CCN(C)CC4)cc3)nc2n1-c1cccc(C(C)(C)O)n1 [AZD1775] (first compound max 1 µM, partner max 1 µM)
0.0604

Look up Bliss excess for this molecule: C[C@@H](Nc1cc(F)cc(F)c1)c1cc(C(=O)N(C)C)cc2c(=O)cc(N3CCOCC3)oc12 [AZD8186] + CC(=O)c1c(C)c2cnc(Nc3ccc(N4CCNCC4)cn3)nc2n(C2CCCC2)c1=O [Palbociclib] (first compound max 10 µM, 7x7, partner max 10 µM)
0.0335

Look up Bliss excess for this molecule: C[C@@H](Nc1cc(F)cc(F)c1)c1cc(C(=O)N(C)C)cc2c(=O)cc(N3CCOCC3)oc12 [AZD8186] + C1CN(CCC1(C(=O)N[C@@H](CCO)C2=CC=C(C=C2)Cl)N)C3=NC=NC4=C3C=CN4 [AZD5363] (first compound max 10 µM, 7x7, partner max 10 µM)
0.04

Look up Bliss excess for this molecule: Cn1cnc2c(F)c(Nc3ccc(Br)cc3Cl)c(C(=O)NOCCO)cc21 [Selumetinib] + C[C@@H]1COCCN1C2=NC(=NC(=C2)C3(CC3)[S@](=N)(=O)C)C4=C5C=CNC5=NC=C4 [AZD6738] (first compound max 10 µM, 7x7, partner max 10 µM)
-0.0415

Look up Bliss excess for this molecule: Cc1c2c(nn1C)CSCc1cc(n(C)n1)CSc1cc(c3ccccc3c1)OCCCc1c(C(=O)O)n(C)c3c-2c(Cl)ccc13 [AZD5991] + CC1(C)CCC(CN2CCN(c3ccc(C(=O)NS(=O)(=O)c4ccc(NCC5CCOCC5)c([N+](=O)[O-])c4)c(Oc4cnc5[nH]ccc5c4)c3)CC2)=C(c2ccc(Cl)cc2)C1 [Venetoclax] (first compound max 1 µM, 7x7, partner max 1 µM)
0.0156

Look up Bliss excess for this molecule: C[C@@H](c1ccc2nccn2c1)n1nnc2ncc(-c3cnn(C)c3)nc21 [Savolitinib] + Cc1c2c(nn1C)CSCc1cc(n(C)n1)CSc1cc(c3ccccc3c1)OCCCc1c(C(=O)O)n(C)c3c-2c(Cl)ccc13 [AZD5991] (first compound max 1 µM, 7x7, partner max 1 µM)
-0.0103
